EC50 listing for selected molecules.
Target: Hexokinase HKDC1 (Homo sapiens, UniProt Q2TB90)
Sequence (Q2TB90 whole entry): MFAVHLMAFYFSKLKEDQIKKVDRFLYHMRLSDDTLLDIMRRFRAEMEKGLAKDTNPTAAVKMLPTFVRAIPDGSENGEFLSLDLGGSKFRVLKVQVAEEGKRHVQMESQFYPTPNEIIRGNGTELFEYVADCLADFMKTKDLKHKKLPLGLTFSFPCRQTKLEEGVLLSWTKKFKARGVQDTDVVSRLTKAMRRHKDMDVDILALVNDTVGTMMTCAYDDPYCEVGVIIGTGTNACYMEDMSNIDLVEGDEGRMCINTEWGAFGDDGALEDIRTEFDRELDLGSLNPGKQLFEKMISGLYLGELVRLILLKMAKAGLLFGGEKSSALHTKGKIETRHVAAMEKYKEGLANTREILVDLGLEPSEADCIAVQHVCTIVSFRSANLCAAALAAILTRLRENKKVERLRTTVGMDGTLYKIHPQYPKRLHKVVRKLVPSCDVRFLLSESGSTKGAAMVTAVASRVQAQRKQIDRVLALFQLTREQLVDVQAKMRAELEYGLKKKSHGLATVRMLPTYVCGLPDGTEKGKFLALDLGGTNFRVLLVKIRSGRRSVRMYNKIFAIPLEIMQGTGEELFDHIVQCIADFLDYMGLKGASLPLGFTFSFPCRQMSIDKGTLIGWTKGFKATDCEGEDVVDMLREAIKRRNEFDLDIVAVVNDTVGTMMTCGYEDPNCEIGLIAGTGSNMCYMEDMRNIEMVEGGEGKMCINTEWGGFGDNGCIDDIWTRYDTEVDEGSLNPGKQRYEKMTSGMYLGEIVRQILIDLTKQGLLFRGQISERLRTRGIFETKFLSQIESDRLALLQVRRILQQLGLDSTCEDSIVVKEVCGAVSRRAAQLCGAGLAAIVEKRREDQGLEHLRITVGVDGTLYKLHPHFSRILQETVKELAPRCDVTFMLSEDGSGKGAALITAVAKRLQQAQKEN
Assay: HKDC1 hexokinase activators, dose response, biochemical, W721R variant (AID 504730)
Type: functional
Calls of active or inactive are those of the source.

EC50 for CC(NC(=O)c1sc2cc([N+](=O)[O-])ccc2c1Cl)C(C)(C)C (centres undefined) is 23.6 µM (inactive)

EC50 for "Nn1cnnc1N/N=C/c1cc(Br)cc(Br)c1O" is > 80 µM (inactive)

EC50 for "S=C(NCc1ccccn1)NN=Cc1ccccn1" is 27.8 µM (inactive)

EC50 for "NC1=C(Cl)C(=O)c2ccc(S(N)(=O)=O)cc2C1=O" is > 80 µM (inactive)

====

Target: Replicative DNA helicase DnaB (Mycobacterium tuberculosis)
Experiment: DnaB intein splicing inhibitors, dose response, biochemical, cell-free fluorescence (AID 449749)
Format: functional
Active and inactive are the calls of the source.
Thanks in advance; please answer with one of these: active, inactive

• Cc1[nH]n(-c2ccccc2)c(=O)c1/C=N\NC(=O)C1COc2ccccc2O1 (stereo unspecified) = active
• Cc1ccccc1C(=O)NNC(=S)NC(=O)COc1ccccc1 = active
• O=C(O)c1cccc(NC2=C(n3nnc4ccccc43)C(=O)c3ccccc3C2=O)c1 = active
• CC(=O)c1c(C)nc(-c2ccc(Cl)cc2)nc1/N=C/N(C)C = inactive

// query Any idea what this test logged for "CCOc1cc(/C=C2/SC(=S)N(Cc3ccccc3)C2=O)ccc1O" ?
// result active

====

Assay: cytotoxicity toward NIH3T3 fibroblasts, dose response, counter-screen, cell-based, ATP luminescence, mouse fibroblasts (AID 2010);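 note: cells exposed to compound for about 90 hours before reading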
Format: functional
EC50 listing for selected compounds.

Reference set, count: 4
* Cc1ccnc(NC(=O)c2cc([N+](=O)[O-])cc([N+](=O)[O-])c2)c1 | > 60 µM (not active)
* O=C(NC(=S)Nc1ccc(CN2CCCCC2)cc1)c1cccc(OCc2ccccc2)c1 | > 60 µM (not active)
* Clc1ccc(SCCOCCN2CCc3ccccc3C2)cc1 | > 60 µM (not active)
* COc1ccc(OC)c(Nc2nc(NCCO)c3ccccc3n2)c1 | > 30 µM (not active)

Next compound, please.
EC50 for "Fc1ccc(Sc2ccccc2CNC2=NCCN2)cc1" is > 60 µM (not active)

====

Molecular target: Voltage-gated inwardly rectifying potassium channel KCNH2 (Homo sapiens);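 note: confirmatory quantitative high-throughput screen measuring inhibition of hERG channel activity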
Sequence (Q12809 whole entry): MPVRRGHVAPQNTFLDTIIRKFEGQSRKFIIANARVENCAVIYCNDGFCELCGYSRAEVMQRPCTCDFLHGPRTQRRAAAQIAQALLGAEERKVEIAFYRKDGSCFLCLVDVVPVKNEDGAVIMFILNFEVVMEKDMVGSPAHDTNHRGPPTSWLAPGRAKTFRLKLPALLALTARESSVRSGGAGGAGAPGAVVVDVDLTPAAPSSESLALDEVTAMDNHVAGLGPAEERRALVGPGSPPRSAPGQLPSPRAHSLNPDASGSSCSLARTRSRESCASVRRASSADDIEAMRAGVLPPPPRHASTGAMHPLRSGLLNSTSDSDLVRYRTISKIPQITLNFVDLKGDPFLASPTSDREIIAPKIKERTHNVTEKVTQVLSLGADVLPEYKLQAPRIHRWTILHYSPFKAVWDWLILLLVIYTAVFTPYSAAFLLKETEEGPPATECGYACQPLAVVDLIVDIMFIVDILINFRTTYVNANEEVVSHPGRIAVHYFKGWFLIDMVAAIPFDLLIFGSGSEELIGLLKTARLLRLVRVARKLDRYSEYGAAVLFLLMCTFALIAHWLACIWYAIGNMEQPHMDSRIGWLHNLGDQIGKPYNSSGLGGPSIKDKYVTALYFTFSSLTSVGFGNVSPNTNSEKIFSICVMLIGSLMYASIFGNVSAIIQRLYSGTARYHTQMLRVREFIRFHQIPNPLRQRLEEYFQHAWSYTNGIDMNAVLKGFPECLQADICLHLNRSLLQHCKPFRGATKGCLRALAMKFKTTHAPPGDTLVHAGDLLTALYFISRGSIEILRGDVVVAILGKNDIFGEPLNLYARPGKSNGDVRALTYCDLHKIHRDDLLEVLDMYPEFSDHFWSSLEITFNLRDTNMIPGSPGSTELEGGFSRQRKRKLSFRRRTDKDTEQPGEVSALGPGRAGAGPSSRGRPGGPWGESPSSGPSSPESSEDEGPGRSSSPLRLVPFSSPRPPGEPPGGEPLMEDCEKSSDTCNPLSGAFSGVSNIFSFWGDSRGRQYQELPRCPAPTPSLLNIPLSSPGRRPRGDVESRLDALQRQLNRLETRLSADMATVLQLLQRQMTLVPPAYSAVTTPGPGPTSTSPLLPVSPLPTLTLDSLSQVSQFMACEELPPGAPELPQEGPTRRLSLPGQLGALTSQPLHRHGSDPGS
Conditions: Potency
Where a name gives a salt, the structure may show the parent alone.
AC50 listing for selected molecules.

• CC(C)(CO)Cc1cc(C(C)(C)C)c(O)c(C(C)(C)C)c1 = 35.5 µM (inconclusive)
• Oc1cc2c(cc1O)[C@H]1c3ccc(O)c(O)c3OC[C@@]1(O)C2 = 22.4 µM (inconclusive)
• COC(=O)[C@H](NC(=O)c1cc(-c2ccccc2)nc2ccccc12)c1ccccc1 = 0.794 µM (inconclusive)

Next molecule, please.
AC50 for COc1cc2c(cc1OC)-c1c/c(=N\c3c(C)cc(C)cc3C)n(C)c(=O)n1CC2 [TREQUINSIN HYDROCHLORIDE] is 35.5 µM (inconclusive)

====

Molecular target: UniProtKB P34707
Sequence (P34707 whole entry): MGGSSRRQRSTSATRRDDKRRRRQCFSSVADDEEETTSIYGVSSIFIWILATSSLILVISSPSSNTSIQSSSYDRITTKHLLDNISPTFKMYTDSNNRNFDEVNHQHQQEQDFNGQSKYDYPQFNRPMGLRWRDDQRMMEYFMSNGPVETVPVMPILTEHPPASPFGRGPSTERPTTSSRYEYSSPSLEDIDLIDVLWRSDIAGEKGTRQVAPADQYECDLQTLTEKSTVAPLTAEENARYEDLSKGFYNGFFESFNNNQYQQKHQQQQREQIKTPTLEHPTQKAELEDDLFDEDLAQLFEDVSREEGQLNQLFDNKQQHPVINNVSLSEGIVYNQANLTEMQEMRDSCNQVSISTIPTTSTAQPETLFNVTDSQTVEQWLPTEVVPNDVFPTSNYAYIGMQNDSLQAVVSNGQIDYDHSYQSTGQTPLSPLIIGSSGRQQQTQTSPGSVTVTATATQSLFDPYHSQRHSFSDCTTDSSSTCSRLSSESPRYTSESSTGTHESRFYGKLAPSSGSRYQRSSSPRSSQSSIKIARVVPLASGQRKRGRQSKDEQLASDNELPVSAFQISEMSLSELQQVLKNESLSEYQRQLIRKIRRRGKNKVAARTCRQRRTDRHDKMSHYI
Assay type: functional
Activity calls are given as the source filed them.
Thanks in advance; please answer with one of these: t (active), f (inactive)

* COC(=O)C12OCC34C(CC5C(C)=C(O)C(=O)CC5(C)C3C(O)C1O)OC(=O)C(OC(=O)C=C(C)C)C24 (stereo not drawn) | t

// query Any idea what this test logged for CN(CC(=O)Nc1cccc(F)c1)C(=O)CC1CC2CCC1C2 (stereo not drawn) ?
// result f

// query Any idea what this test logged for "CCCOc1ccc(OCCSc2ncccn2)cc1" ?
// result f

====

Target: UniProt:Q38C41
Sequence (Q38C41 whole entry): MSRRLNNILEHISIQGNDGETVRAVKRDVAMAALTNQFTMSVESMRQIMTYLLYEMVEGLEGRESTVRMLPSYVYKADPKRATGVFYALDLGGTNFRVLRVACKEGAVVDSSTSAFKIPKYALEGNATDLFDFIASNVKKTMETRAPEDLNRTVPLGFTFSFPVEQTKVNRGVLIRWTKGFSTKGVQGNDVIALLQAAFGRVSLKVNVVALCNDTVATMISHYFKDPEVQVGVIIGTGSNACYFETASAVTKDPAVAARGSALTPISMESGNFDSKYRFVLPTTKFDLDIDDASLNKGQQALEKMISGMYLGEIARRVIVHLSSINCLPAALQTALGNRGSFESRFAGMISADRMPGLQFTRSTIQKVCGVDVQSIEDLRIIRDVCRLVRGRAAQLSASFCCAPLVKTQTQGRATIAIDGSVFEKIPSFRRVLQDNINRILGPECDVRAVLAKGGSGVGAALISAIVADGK
Test: Confirmation assay for inhibitors of Trypanosoma brucei hexokinase 1-Analogue-first series. [Related pubchem assays (depositor defined):AID1430, AID1632, AID2516, AID2560, AID2579, AID2600, AID449725, AID492951]
Format: functional
Calls of active or inactive are those of the source.
Thanks in advance; please answer with one of these: true (1) = active, false (0) = inactive

- CC(C(=O)Nc1ccccc1)n1sc2ccccc2c1=O (centres undefined): true (1)

// query Any idea what this test logged for "O=C(Nc1cc(Cl)ccc1C(=O)O)c1ccc(Cl)cc1" ?
// result false (0)

// query Any idea what this test logged for "CN(C)S(=O)(=O)c1cccc(-n2sc3ccccc3c2=O)c1" ?
// result true (1)

// query Any idea what this test logged for "COc1cccc(NC(=O)Cn2sc3ccccc3c2=O)c1" ?
// result true (1)

====

Target: RNA-binding protein pos-1 (Caenorhabditis elegans, UniProt G5EF15)
Sequence (G5EF15 whole entry, the tested form may be a part): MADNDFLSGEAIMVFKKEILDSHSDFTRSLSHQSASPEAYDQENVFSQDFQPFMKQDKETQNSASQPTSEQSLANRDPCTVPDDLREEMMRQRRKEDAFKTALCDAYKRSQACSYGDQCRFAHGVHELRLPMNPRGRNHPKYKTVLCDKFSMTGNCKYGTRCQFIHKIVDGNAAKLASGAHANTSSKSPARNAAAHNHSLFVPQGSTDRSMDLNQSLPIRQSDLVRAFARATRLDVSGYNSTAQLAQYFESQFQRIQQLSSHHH
Assay: inhibitors of POS-1/mex-3 RNA binding, dose response, biochemical, fluorescence polarization (AID 1964);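 note: purified POS-1 fused to maltose binding protein made in E. coli; potency of compounds blocking POS-1 binding to fluorescent RNA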
Active and inactive are the calls of the source.
EC50 listing for selected compounds.

Reference set, count: 5
* O=C(c1cccs1)c1ccc(-c2cccs2)s1 | 215 µM (active)
* CCOc1cc(C2C(C#N)=C(N)OC3=C2C(=O)CC(C)(C)C3)cc([N+](=O)[O-])c1O (stereo not drawn) | > 300 µM (not active)
* CCCCC1=CC2=CC(=O)C(C)(OC(=O)c3cccs3)C(=O)C2=CO1 (stereo not drawn) | 35.4 µM (active)
* COc1cc(-c2cc(=O)c3c(O)c(OC)c(OC)c(O)c3o2)ccc1O [ISOTHYMONIN] | 48 µM (active)
* O=C(O)CCNc1ccc(NCCC(=O)O)c2c1C(=O)c1ccccc1C2=O | 12.9 µM (active)

EC50 for "O=C(O)c1ccc2c(c1)C(=O)/C(=C\c1ccco1)C2=O" is > 300 µM (not active)

EC50 for COc1ccc(C2=CC3=C(Br)C(=O)C(C)(OC(=O)C4CCCC4)C(=O)C3=CO2)cc1 (stereo not drawn) is 43.7 µM (active)

EC50 for "O=[N+]([O-])c1ccc(C2=Nc3cc(Cl)ccc3OC2)cc1" is 90.7 µM (active)

====

Biological target: Replicative DNA helicase DnaB (Mycobacterium tuberculosis, UniProt P9WMR3)
Sequence (P9WMR3 whole entry): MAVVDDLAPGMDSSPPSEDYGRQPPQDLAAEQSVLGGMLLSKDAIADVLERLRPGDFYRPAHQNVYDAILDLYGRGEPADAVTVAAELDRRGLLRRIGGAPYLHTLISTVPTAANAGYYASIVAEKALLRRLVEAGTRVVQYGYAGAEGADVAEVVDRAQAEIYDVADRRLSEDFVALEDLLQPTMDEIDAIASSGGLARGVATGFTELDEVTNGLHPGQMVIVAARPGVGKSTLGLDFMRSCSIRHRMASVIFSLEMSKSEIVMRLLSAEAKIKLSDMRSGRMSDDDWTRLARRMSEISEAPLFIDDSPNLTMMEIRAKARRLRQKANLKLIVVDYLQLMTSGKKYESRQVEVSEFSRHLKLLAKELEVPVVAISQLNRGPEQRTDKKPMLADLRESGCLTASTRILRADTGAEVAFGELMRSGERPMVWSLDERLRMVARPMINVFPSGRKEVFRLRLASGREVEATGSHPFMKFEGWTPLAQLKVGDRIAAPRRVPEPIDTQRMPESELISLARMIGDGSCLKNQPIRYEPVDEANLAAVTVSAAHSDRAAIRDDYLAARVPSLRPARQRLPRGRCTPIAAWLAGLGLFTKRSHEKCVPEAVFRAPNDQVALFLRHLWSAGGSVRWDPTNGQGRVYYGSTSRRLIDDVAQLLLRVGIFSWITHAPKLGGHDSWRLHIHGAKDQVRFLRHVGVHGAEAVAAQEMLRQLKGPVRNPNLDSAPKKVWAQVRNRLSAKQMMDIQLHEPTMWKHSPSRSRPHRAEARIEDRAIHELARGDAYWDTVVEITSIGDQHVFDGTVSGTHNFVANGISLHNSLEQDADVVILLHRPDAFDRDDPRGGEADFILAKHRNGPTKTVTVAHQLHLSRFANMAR
Assay: DnaB intein splicing inhibitors, dose response, biochemical, cell-free fluorescence (AID 449749)
Assay type: functional
Active and inactive are the calls of the source.
Thanks in advance; please answer with one of these: 1 = active, -1 = inactive

These solved cases illustrate the format of a correct answer.
- CCc1nnc(N/N=C/c2cc(Br)c(O)cc2O)n1N: -1
- N#CC(C#N)=NNc1ccc(-n2ccc(C(F)(F)F)n2)cc1: 1

Kindly review the next compound as well.
// query Any idea what this test logged for "Cc1cc(C(=O)c2ccc(Cl)cc2)c(NC(=O)CCl)s1" ?
// result 1

====

Experiment: CRF-BP/CRF-R2 complex antagonists, dose response, cell-based, uHTS hits, 384-well (AID 651639)
Assay type: functional, Homo sapiens
Details: read-out: IC50_Mean
Calls of active or inactive are those of the source.
Thanks in advance; please answer with one of these: active, inactive

These solved cases illustrate the format of a correct answer.
- COC(=O)CSc1nn(-c2ccc(F)cc2)c(=S)s1: inactive
- COc1ccc([N+](=O)[O-])cc1NC(=O)c1ccccc1SC: active
- Nc1ccccc1Oc1c(F)c(F)c(Oc2ccccc2N)c(F)c1F: inactive
- CCOc1ccc(-n2c(SCc3ccc([N+](=O)[O-])cc3)nnc2-c2ccc(OC)cc2)cc1: inactive
- CN(C)C1=NP(N(C)C)(N(C)C)=NC(c2ccccc2)=N1: inactive

// query Any idea what this test logged for "N#Cc1cccc(NC(=O)Nc2cccs2)c1" ?
// result inactive
